# tgt: AgLsb1
# protocol: SPOT peptide array binding signal intensity (averaged, normalized) (arbitrary units (background-subtracted, floor 0; scale differs between SH3 domains)); higher = stronger binding of the SH3 domain to the peptide
# SPOT peptide array binding signal intensity >= 20 gives Yes, anything below gives No

Here's what some known entries look like.
# bool: SPOT peptide array binding signal intensity of LLGRKRPVMERVVDI >= 20
No

// next record EVTPKVPERPSRRKT
Yes

Further cases:
# bool: SPOT peptide array binding signal intensity of ERPKRRAPPPVPKKP >= 20
Yes

// next record SRYRRPLTLLLLKPF
No

// next record HGKRRAPLLLAKLDV
No

// next record IFLRISINFPLNYPN
Yes
